SYSTEM_UNDER_TEST: human GPR120 (Homo sapiens (Human))
Sequence (Q5NUL3 whole entry): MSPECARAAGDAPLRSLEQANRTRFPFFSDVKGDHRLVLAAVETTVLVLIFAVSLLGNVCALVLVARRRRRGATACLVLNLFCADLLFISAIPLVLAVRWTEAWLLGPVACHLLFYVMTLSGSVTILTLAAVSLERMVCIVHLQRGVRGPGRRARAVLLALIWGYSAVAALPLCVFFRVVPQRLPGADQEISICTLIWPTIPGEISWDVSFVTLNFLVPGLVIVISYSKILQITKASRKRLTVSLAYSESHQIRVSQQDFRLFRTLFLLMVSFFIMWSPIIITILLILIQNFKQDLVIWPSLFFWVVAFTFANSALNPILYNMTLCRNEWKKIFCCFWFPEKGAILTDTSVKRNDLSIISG
PROCEDURE_SUMMARY: GPR120 pERK AlphaScreen SureFire Assay (human GPR120 pERK assay)
ASSAY_SETUP: CHOA12 or CHO-K1 cells stably transfected with the short form of human GPR120 receptor; phosphorylated ERK; read-out: EC50 values measured in the human GPR120 pERK assay
Here, each record is paired with measured EC50 data.
Numbers only here, please. The scale is nM.

Here's what some known entries look like.
O=C(O)CCC12CCC(OCCc3cc(OC(F)(F)F)ccc3F)(CC1)C2 :: 2640
O=C(O)CCCC12CCC(OCc3cccc(C(=O)c4ccccc4)c3)(CC1)C2 :: 820
O=C(O)CCCC12CCC(OCc3cccc(Oc4ccc(Cl)cc4)c3)(CC1)C2 :: 590
OCC(O)CCC12CCC(OCc3cc(F)cc(Oc4ccccc4)c3)(CC1)C2 (single isomer, unassigned) [Example 96] :: 380
CC1(C)Cc2cc(Cl)cc(COC34CCC(CCCC(=O)O)(CC3)C4)c2O1 :: 530

Now for another entry.
Input O=C(O)CCCC12CCC(OCc3cccc(Oc4ccccc4F)c3)(CC1)C2 . Output EC50: 640
